Catalogue of IC50 values
Biological target: EGFR (UniProt P00533)
Sequence (P00533 whole entry, looked up): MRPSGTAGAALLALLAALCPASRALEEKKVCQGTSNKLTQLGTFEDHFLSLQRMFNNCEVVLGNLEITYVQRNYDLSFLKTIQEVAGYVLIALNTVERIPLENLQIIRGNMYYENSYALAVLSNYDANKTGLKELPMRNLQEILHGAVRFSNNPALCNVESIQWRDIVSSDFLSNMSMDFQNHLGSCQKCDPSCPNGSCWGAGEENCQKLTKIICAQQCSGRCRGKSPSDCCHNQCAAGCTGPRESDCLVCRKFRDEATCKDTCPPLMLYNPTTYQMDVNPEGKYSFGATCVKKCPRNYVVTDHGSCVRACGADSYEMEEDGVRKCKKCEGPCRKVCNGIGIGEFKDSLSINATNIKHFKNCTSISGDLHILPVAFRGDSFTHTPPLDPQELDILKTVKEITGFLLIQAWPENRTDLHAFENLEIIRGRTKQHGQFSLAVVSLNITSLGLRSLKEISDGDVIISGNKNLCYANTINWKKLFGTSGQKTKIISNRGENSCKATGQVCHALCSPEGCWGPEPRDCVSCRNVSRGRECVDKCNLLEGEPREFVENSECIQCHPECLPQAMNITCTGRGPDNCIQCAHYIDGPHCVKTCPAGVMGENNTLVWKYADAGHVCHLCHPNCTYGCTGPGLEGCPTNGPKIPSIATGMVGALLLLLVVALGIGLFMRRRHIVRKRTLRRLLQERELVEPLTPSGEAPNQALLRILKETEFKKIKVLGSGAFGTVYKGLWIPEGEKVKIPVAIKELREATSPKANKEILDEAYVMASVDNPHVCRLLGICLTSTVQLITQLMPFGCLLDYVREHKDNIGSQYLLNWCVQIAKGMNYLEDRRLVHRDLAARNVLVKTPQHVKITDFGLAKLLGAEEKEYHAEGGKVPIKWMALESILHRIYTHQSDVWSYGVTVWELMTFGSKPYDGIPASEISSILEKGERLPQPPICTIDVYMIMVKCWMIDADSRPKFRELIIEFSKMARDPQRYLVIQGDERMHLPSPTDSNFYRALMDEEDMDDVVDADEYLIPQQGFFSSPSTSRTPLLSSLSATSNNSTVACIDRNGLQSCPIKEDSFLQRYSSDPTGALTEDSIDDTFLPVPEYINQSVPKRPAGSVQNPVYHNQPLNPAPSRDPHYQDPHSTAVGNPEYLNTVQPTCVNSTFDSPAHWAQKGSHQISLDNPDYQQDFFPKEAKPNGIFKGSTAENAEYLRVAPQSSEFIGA

Below, each entry is followed by its recorded IC50 result.
INSERT INTO results (compound, subject_of_test, measurement) VALUES
  ('N#Cc1ccc(Nc2ncnc(-c3cccs3)n2)cc1', 'EGFR (UniProt P00533)', '> 4.5 µg/mL'),
  ('COc1cc(Nc2nc(F)nc(Nc3cccc(OC(F)(F)F)c3)n2)cc(OC)c1OC', 'EGFR (UniProt P00533)', '< 0.4 µg/mL'),
  ('CCC(O)CNc1ncnc(Nc2ccc(OC)c(OC)c2)n1 (stereo not drawn)', 'EGFR (UniProt P00533)', '> 4.5 µg/mL'),
  ('COc1cc(Nc2ncnc(-c3ccccc3)n2)cc(OC)c1OC', 'EGFR (UniProt P00533)', '> 4.5 µg/mL'),
  ('Nc1nc2ccccc2n1-c1ncnc(Nc2cccc(CC(=O)NCc3ccccn3)c2)n1', 'EGFR (UniProt P00533)', '> 4.5 µg/mL');

// lookup IC50 for COc1cc(Nc2ncnc(-c3cccnc3Nc3cccc(C(F)(F)F)c3)n2)cc(OC)c1OC
> 4.5 µg/mL

// lookup IC50 for COc1cc(Nc2ncnc(-n3c(Nc4ccc(C)cc4)nc4ccccc43)n2)cc(OC)c1OC
> 4.5 µg/mL

// lookup IC50 for Nc1nc2ccccc2n1-c1ncnc(Nc2cccc(Cl)c2)n1
0.4 to 2.4 µg/mL

====

Values of IC50 reported for EGFR (UniProt P00533) appear below.

Below, each entry is followed by its recorded IC50 result.
INSERT INTO assay_data (compound_string, subject_of_test, measurement) VALUES
  ('COc1ccc2c(c1)nc(Cl)n2-c1ncnc(Nc2cc(OC)c(OC)c(OC)c2)n1.COc1ccc2nc(Cl)n(-c3ncnc(Nc4cc(OC)c(OC)c(OC)c4)n3)c2c1', 'EGFR (UniProt P00533)', '> 4.5 µg/mL'),
  ('Cc1ccc2c(c1)CCCN2c1ncnc(NCc2cccnc2)n1', 'EGFR (UniProt P00533)', '> 4.5 µg/mL'),
  ('COc1cc(Nc2ncnc(-c3cccnc3Nc3cccc(C#N)c3)n2)cc(OC)c1OC', 'EGFR (UniProt P00533)', '> 4.5 µg/mL');

// lookup IC50 for COc1cc(Nc2ncnc(Nc3ccc4cn[nH]c4c3)n2)cc(OC)c1OC
0.4 to 2.4 µg/mL

====

Catalogue of IC50 values
Molecular target: EGFR (UniProt P00533)

Below, each entry is followed by its recorded IC50 result.
INSERT INTO results (compound_string, subject_of_test, measurement) VALUES
  ('COc1cc(Nc2ncnc(-c3cccnc3Nc3ccc4c(c3)CCC4)n2)cc(OC)c1OC', 'EGFR (UniProt P00533)', '> 4.5 µg/mL'),
  ('COc1cc(Nc2ncnc(-c3cccnc3NCc3ccccn3)n2)cc(OC)c1OC', 'EGFR (UniProt P00533)', '> 4.5 µg/mL'),
  ('COc1ccc(-c2cc(Nc3ncnc(Nc4cc(OC)c(OC)c(OC)c4)n3)[nH]n2)cc1', 'EGFR (UniProt P00533)', '0.4 to 2.4 µg/mL');

Turning now to a further molecule:
// lookup IC50 for COc1cc(Nc2ncnc(-n3ccc4cccnc43)n2)cc(OC)c1OC
> 4.5 µg/mL

====

Values of IC50 reported for EGFR (UniProt P00533) appear below.

Below, each entry is followed by its recorded IC50 result.
INSERT INTO assay_data (compound_string, measure_name, measurement) VALUES
  ('COC(=O)c1ccc(-c2cc(Nc3ncnc(NCCc4ccc(OC)cc4)n3)[nH]n2)cc1', 'IC50', '> 4.5 µg/mL'),
  ('Cc1ccc2c(c1)CCCN2c1ncnc(NCc2ccccn2)n1', 'IC50', '> 4.5 µg/mL');

Turning now to a further compound:
Query for EGFR (UniProt P00533): what IC50 does the record show for COc1cc(Nc2ncnc(NC(=O)Nc3ccccc3)n2)cc(OC)c1OC ?
> 4.5 µg/mL

====

Values of IC50 reported for UniProt P00533 appear below.

Below, each entry is followed by its recorded IC50 result.
INSERT INTO assay_data (compound_string, measurement) VALUES
  ('c1ccc(CNc2ncnc(Nc3cc(-c4ccco4)n[nH]3)n2)nc1', '0.4 to 2.4 mg/L'),
  ('CNc1nc2ccccc2n1-c1ncnc(Nc2cc(OC)c(OC)c(OC)c2)n1', '> 4.5 mg/L'),
  ('COc1cc(Nc2ncnc(N3CCOCC3)n2)cc(OC)c1OC', '> 4.5 mg/L'),
  ('c1ccc(Nc2ncccc2-c2ncnc(Nc3ccc4[nH]ncc4c3)n2)cc1', '3.5 to 4.5 mg/L'),
  ('COc1cc2ccn(-c3ncnc(Nc4cc(OC)c(OC)c(OC)c4)n3)c2cc1OC', '3.5 to 4.5 mg/L'),
  ('c1ccc(-c2cc(Nc3ncnc(Nc4cccc(-c5cnco5)c4)n3)[nH]n2)cc1', '0.4 to 2.4 mg/L');

Query for UniProt P00533: what IC50 does the record show for Clc1ncnc(Nc2cc(-c3ccccc3)n[nH]2)n1 ?
> 4.5 mg/L

====

Values of IC50 reported for EGFR (UniProt P00533) appear below.

INSERT INTO results (compound_string, measure_name, measurement) VALUES
  ('COc1cc(Nc2ncnc(Nc3ccccn3)n2)cc(OC)c1OC', 'IC50', '> 4.5 µg/mL'),
  ('O=c1[nH]c2ccccc2n1-c1ncnc(Nc2cccc3ncccc23)n1', 'IC50', '> 4.5 µg/mL'),
  ('Clc1cccc(Nc2ncnc(Nc3cc(-c4ccccc4)n[nH]3)n2)c1', 'IC50', '< 0.4 µg/mL'),
  ('CN(c1ccccc1)c1ncnc(-n2c(N)nc3ccccc32)n1', 'IC50', '2.4 to 3.5 µg/mL'),
  ('COc1cc(Nc2ncnc(-c3ccc(N(C)C)nc3)n2)cc(OC)c1OC', 'IC50', '> 4.5 µg/mL'),
  ('COc1cc(Nc2ncnc(Nc3cccc(CN4CCN(C)CC4)c3)n2)cc(OC)c1OC', 'IC50', '> 4.5 µg/mL'),
  ('Cc1cccc(Nc2ncnc(Nc3ccc(O)cc3)n2)c1', 'IC50', '< 0.4 µg/mL'),
  ('COc1ccc2c(c1)nc(NCc1ccccc1)n2-c1ncnc(Nc2cc(OC)c(OC)c(OC)c2)n1.COc1ccc2nc(NCc3ccccc3)n(-c3ncnc(Nc4cc(OC)c(OC)c(OC)c4)n3)c2c1', 'IC50', '0.4 to 2.4 µg/mL');

Query for EGFR (UniProt P00533): what IC50 does the record show for c1csc(-c2ncnc(Nc3ccncc3)n2)c1 ?
> 4.5 µg/mL

Query for EGFR (UniProt P00533): what IC50 does the record show for FC(F)(F)c1cccc(Nc2ncnc(-n3cccc3)n2)c1 ?
> 4.5 µg/mL

Query for EGFR (UniProt P00533): what IC50 does the record show for Oc1cccc(Nc2ncnc(-c3ccccc3)n2)c1 ?
> 4.5 µg/mL

Query for EGFR (UniProt P00533): what IC50 does the record show for O=c1[nH]c2ccccc2n1-c1ncnc(Nc2ccc3[nH]ncc3c2)n1 ?
> 4.5 µg/mL

Query for EGFR (UniProt P00533): what IC50 does the record show for c1ccc(CNc2nc3ccccc3n2-c2ncnc(Nc3cccc(Cn4ccnn4)c3)n2)nc1 ?
2.4 to 3.5 µg/mL

Query for EGFR (UniProt P00533): what IC50 does the record show for COc1cc(Nc2ncnc(-n3ccnc3NCc3ccccc3)n2)cc(OC)c1OC ?
> 4.5 µg/mL

Query for EGFR (UniProt P00533): what IC50 does the record show for COc1cc(Nc2ncnc(Nc3cc(F)cc(C(F)(F)F)c3)n2)cc(OC)c1OC ?
< 0.4 µg/mL

Query for EGFR (UniProt P00533): what IC50 does the record show for FC(F)C(F)(F)Oc1cccc(Nc2ncnc(-c3cccs3)n2)c1 ?
> 4.5 µg/mL

Query for EGFR (UniProt P00533): what IC50 does the record show for COc1cc(Nc2ncnc(Nc3ccccc3F)n2)cc(OC)c1OC ?
< 0.4 µg/mL

Query for EGFR (UniProt P00533): what IC50 does the record show for COc1cc(Nc2ncnc(-n3c(Nc4ccc(C(C)C)cc4)nc4ccccc43)n2)cc(OC)c1OC ?
> 4.5 µg/mL

Query for EGFR (UniProt P00533): what IC50 does the record show for CN(c1ccc2c(cnn2Cc2ccccc2)c1)c1ncnc(Nc2cccc(Br)c2)n1 ?
< 0.4 µg/mL

Query for EGFR (UniProt P00533): what IC50 does the record show for COc1cc(Nc2ncnc(Nc3cccc(OCc4ccccc4)c3)n2)cc(OC)c1OC ?
> 4.5 µg/mL

Query for EGFR (UniProt P00533): what IC50 does the record show for COc1cc(Nc2ncnc(N)n2)cc(OC)c1OC ?
> 4.5 µg/mL
